molecular target: Protein kinase C gamma type (Homo sapiens); assay: Inhibition of PKCgamma at 10 uM by HTRF assay relative to control
endpoint: inhibition (%)
Kindly provide the numeric value in % only, without the unit symbol.

Cc1ccc(CN2CCN(c3nccc(C(C#N)c4ccccn4)n3)CC2)cc1 (stereo not drawn) : 4
COc1ccc(NC(=O)Cc2ccc(Nc3cc(N(C)c4cccc(C)c4)ncn3)cc2)cn1 : 5

Shift focus to the following entry.
Input: Provide inhibition value for the following compound: `Cc1cc(C(=O)N2CCN(c3ncnc4c3CN(Cc3ccccc3)CC4)CC2)c(C)n1C`
Output: 6

###

biological target: UniProt:P23443; test: Inhibition of p70S6K at 10 uM by HTRF assay relative to control
Sequence (P23443 whole entry, looked up): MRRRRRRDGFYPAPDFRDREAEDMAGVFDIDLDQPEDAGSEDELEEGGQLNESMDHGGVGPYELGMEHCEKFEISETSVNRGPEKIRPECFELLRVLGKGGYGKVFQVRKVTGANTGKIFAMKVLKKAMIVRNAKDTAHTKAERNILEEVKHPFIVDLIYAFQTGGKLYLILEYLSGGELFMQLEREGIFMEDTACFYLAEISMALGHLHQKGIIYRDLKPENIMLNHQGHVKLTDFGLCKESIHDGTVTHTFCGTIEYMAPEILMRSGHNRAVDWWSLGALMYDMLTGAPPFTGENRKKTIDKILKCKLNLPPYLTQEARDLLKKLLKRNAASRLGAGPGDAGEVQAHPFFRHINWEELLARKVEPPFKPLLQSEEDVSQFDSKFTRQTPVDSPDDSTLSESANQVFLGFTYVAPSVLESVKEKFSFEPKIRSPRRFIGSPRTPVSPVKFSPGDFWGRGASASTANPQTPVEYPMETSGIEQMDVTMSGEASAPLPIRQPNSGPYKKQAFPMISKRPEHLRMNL
Everything with inhibition lower than 9% is no (0); everything else, including exactly 9%, is yes (1).

Examples with answers:
O=C(NCc1cccnc1)c1cccc(-c2ccc(Nc3ccc4ncsc4c3)nn2)c1 : yes (1)
Nc1nc(Nc2ccc(C(=O)NCCc3ccncc3)cc2)cc(N2CCOCC2)n1 : yes (1)
O=C(COc1ccccc1)N1CCN(c2nccc(Nc3ccc4ncsc4c3)n2)CC1 : yes (1)
Nc1nc(N2CCOCC2)cc(N2CCC(C(=O)NCCc3ccc(O)cc3)CC2)n1 : no (0)
Clc1ccc2sc(CN3CCN(c4ncnc5c4CN(Cc4ccccc4)CC5)CC3)cc2c1 : yes (1)
COc1cccc(Nc2cc(Nc3cccc(C(=O)N(C)CCc4ccccn4)c3)nc(N)n2)c1 : no (0)
Cc1cccc(N(C)c2cc(Nc3cccc(C(=O)N(CC(C)C)CC(C)C)c3)ncn2)c1 : yes (1)
Cc1cccc(Oc2ccnc(N3CCN(C(=O)c4c(C)noc4C)CC3)n2)c1 : no (0)

Moving on to the next compound.
Input: Check the entry `CN(C)CC(C)(C)CNC(=O)C1CCN(c2cc(N3CCOCC3)nc(N)n2)CC1` : does inhibition equal or exceed 9%?
Output: no (0)
